study_target: T1, B-Myb transactivation domain (residues 275-376) (mouse, UniProt P48972 275-376)
T1 construct: also called B-Myb TAD
T1 sequence (looked up): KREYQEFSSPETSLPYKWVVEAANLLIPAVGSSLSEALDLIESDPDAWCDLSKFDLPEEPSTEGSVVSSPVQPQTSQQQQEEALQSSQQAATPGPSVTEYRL
test_protocol: NMR titration; 15N/1H HSQC of 15N-labelled p300 TAZ2 (100 µM) without and with 100 or 200 µM unlabelled B-Myb TAD; minimal shift approach; 25°C, 600 MHz; 20 mM Bis-Tris, 100 mM NaCl, 5 mM DTT, 20 µM ZnSO4, pH 5.8; Kd estimated from intermediate exchange
details: both partners purified
pKd: −log10 of the molar value.
quantity_name: pKd

Looking up TAZ2 domain of the coactivator p300 (domain or fragment, human, UniProt Q09472 1726-1812, looked up, human p300, TAZ2 domain, residues 1726-1812, corresponding to murine CBP TAZ2; cloned into the NdeI and BamHI sites of pET23a; No tag is stated; also called p300 TAZ2) SPGDSRRLSIQRCIQSLVHACQCRNANCSLPSCQKMKRVVQHTKGCKRKTNGGCPICKQLIALCCYHAKHCQENKCPVPFCLNIKQK , I see its pKd listed as 5.00 to 6.00
